The measured values listed here are drawn from patent US12577213B2.

# ASSAY_NAME: Metabolic stability in vivo (plasma half-life after IV)
# REPORTED_CONDITIONS: mouse, plasma, iv; intravenously at 1 mg/kg, male BALB/c nude mice; read-out: T½ of (IV in nude mice) (converted)
# Experimental: The intravenous injection group of the embodiment compound was prepared with the mixed solvent of DMA:PEG400:30% SBECD=5:25:70 to form a 0.2 mg/mL of solution, and administered intravenously at 1 mg/kg of weight; and the oral preparation group was prepared with 0.5% MC to form a 1 mg/mL of solution, and administered by oral gavage at 10 mg/kg weight. • Male BALB/c nude mice, 4-5 weeks old, purchased from Shanghai SLAC. 3. […]
Measured half-life values are reported for all entries that follow.
Give your result in min as a bare value.

The cases that follow already have their half-life on record.
[2H]C([2H])([2H])C([2H])([2H])N(C(=O)C[C@H]1C(=O)Nc2cc(NC(=O)c3cc(OC)c(OC)c(OC)c3Cl)c(Oc3cc(C)cc(C)c3)cc2C(=O)N1C)C([2H])([2H])C([2H])([2H])[2H] [Compound 12]: 34
[2H]C([2H])([2H])Oc1cc(C(=O)Nc2cc3c(cc2Oc2cc(C)cc(C)c2)C(=O)N(C)[C@@H](CC(=O)N(C)C)C(=O)N3)c(Br)c(OC([2H])([2H])[2H])c1OC([2H])([2H])[2H] [Compound 16]: 35.1
[2H]C([2H])([2H])Oc1cc(C(=O)Nc2cc3c(cc2Oc2cc(C)cc(C)c2)C(=O)N[C@@H](CC(=O)N(C([2H])([2H])C([2H])([2H])[2H])C([2H])([2H])C([2H])([2H])[2H])C(=O)N3)c(Cl)c(OC([2H])([2H])[2H])c1OC([2H])([2H])[2H] [Compound 6]: 78.6

The record that follows has no half-life shown yet.
Q: Look at this molecule and give its reported half-life. [2H]C([2H])([2H])Oc1cc(C(=O)Nc2cc3c(cc2Oc2cc(C)cc(C)c2)C(=O)N[C@@H](CC(=O)N(CC)CC)C(=O)N3)c(Cl)c(OC([2H])([2H])[2H])c1OC([2H])([2H])[2H] [Compound 1]
Result: 53.1

----------
Consider compounds characterized by their GI50 with SF295 (central nervous system tumor).
Just the number in µM, nothing appended.

Here is how some compounds turned out for GI50.
[2H]C([2H])([2H])Oc1cc(C(=O)Nc2cc3c(cc2Oc2cc(C)cc(C)c2)C(=O)N[C@@H](CC(=O)N2CCC(F)(F)CC2)C(=O)N3)c(Cl)c(OC([2H])([2H])[2H])c1OC([2H])([2H])[2H] [Compound 10]: 0.0107
[2H]C([2H])([2H])Oc1cc(C(=O)Nc2cc3c(cc2Oc2cc(C)cc(C)c2)C(=O)N(C)[C@@H](CC(=O)N(OC([2H])([2H])[2H])C([2H])([2H])[2H])C(=O)N3)c(Cl)c(OC([2H])([2H])[2H])c1OC([2H])([2H])[2H] [Compound 39]: 0.012

Continue with the compound presented below.
Q: # GI50 lookup, item [2H]C([2H])([2H])OC(=O)C[C@@H]1NC(=O)c2cc(Oc3cc(C)cc(C)c3)c(NC(=O)c3cc(OC)c(OC)c(OC)c3Cl)cc2NC1=O [Compound 9]
Result: 0.0152

----------
# Tested on: breast cancer cell line SUM159 sphere
# ASSAY_NAME: Breast cancer stem cell sphere formation
# Format: cell-based, human
# REPORTED_CONDITIONS: 50 nM
REPORTED_METRIC: killing effect on SUM159 sphere

[2H]C([2H])([2H])C([2H])([2H])N(C(=O)C[C@H]1C(=O)Nc2cc(NC(=O)c3cc(OC)c(OC)c(OC)c3Br)c(Oc3cc(C)cc(C)c3)cc2C(=O)N1C)C([2H])([2H])C([2H])([2H])[2H]: strong killing effect
[2H]C([2H])([2H])Oc1cc(C(=O)Nc2cc3c(cc2Oc2cc(C)cc(C)c2)C(=O)N(C)[C@@H](CC(=O)N(C([2H])([2H])C([2H])([2H])[2H])C([2H])([2H])C([2H])([2H])[2H])C(=O)N3)c(Br)c(OC([2H])([2H])[2H])c1OC([2H])([2H])[2H]: strong killing effect
[2H]C([2H])([2H])C([2H])([2H])N(C(=O)C[C@@H]1NC(=O)c2cc(Oc3cc(C)cc(C)c3)c(NC(=O)c3cc(OC)c(OC)c(OC)c3Br)cc2NC1=O)C([2H])([2H])C([2H])([2H])[2H]: strong killing effect
[2H]C([2H])([2H])Oc1cc(C(=O)Nc2cc3c(cc2Oc2cc(C)cc(C)c2)C(=O)N(C)[C@@H](CC(=O)N(C([2H])([2H])[2H])C([2H])([2H])[2H])C(=O)N3)c(Br)c(OC([2H])([2H])[2H])c1OC([2H])([2H])[2H]: strong killing effect

Q: # lookup: killing effect on SUM159 sphere of [2H]C([2H])([2H])Oc1cc(C(=O)Nc2cc3c(cc2Oc2cc(C)cc(C)c2)C(=O)N[C@@H](CC(=O)N(C([2H])([2H])[2H])C([2H])([2H])[2H])C(=O)N3)c(Br)c(OC([2H])([2H])[2H])c1OC([2H])([2H])[2H]
Result: strong killing effect

Q: Item: [2H]C([2H])([2H])Oc1cc(C(=O)Nc2cc3c(cc2Oc2cc(C)cc(C)c2)C(=O)N[C@@H](CC(=O)N(C([2H])([2H])C([2H])([2H])[2H])C([2H])([2H])C([2H])([2H])[2H])C(=O)N3)c(Br)c(OC([2H])([2H])[2H])c1OC([2H])([2H])[2H]
Result: strong killing effect

Q: Also [2H]C([2H])([2H])Oc1cc(C(=O)Nc2cc3c(cc2Oc2cc(C)cc(C)c2)C(=O)N[C@@H](CC(=O)N(C)C)C(=O)N3)c(Br)c(OC([2H])([2H])[2H])c1OC([2H])([2H])[2H] , if possible.
Result: strong killing effect

----------
# Test system: SF295 (central nervous system tumor)
Below, each entry is listed alongside its reported GI50.
Kindly provide the numeric value in nM only, without the unit symbol.

[2H]C([2H])([2H])N(C(=O)C[C@@H]1NC(=O)c2cc(Oc3cc(C)cc(C)c3)c(NC(=O)c3cc(OC)c(OC)c(OC)c3Br)cc2NC1=O)C([2H])([2H])[2H] [Compound 22]: 10
[2H]C([2H])([2H])Oc1cc(C(=O)Nc2cc3c(cc2Oc2cc(C)cc(C)c2)C(=O)N(C)[C@@H](CC(=O)N(C)OC)C(=O)N3)c(Cl)c(OC([2H])([2H])[2H])c1OC([2H])([2H])[2H] [Compound 36]: 10
[2H]C([2H])([2H])Oc1cc(C(=O)Nc2cc3c(cc2Oc2cc(C)cc(C)c2)C(=O)N(C)[C@@H](CC(=O)N(C)OC)C(=O)N3)c(Br)c(OC([2H])([2H])[2H])c1OC([2H])([2H])[2H] [Compound 32]: 5

Turning now to a further record.
Q: Quick check: GI50 of [2H]C([2H])([2H])Oc1cc(C(=O)Nc2cc3c(cc2Oc2cc(C)cc(C)c2)C(=O)N[C@@H](CC(=O)C(C)(C)P(=O)(OC)OC)C(=O)N3)c(Br)c(OC([2H])([2H])[2H])c1OC([2H])([2H])[2H] [Compound 26] ?
Result: 42.7

----------
# ASSAY_NAME: Liver microsomes stability
# Assay type: in vitro ADME, human
# REPORTED_CONDITIONS: human, human liver microsomes, 1 μM compound, 1 mg/mL human liver microsomes, 1 mM NADPH; read-out: T½ of HLM
Classes based on half-life at 1 μM: lower bin: < 0.7 h; middle bin: ≥ 0.7 h and < 2 h; upper bin: ≥ 2 h

These solved cases illustrate the format of a correct answer.
[2H]C([2H])([2H])Oc1cc(C(=O)Nc2cc3c(cc2Oc2cc(C)cc(C)c2)C(=O)N[C@@H](CC(=O)N(CC)CC)C(=O)N3)c(Br)c(OC([2H])([2H])[2H])c1OC([2H])([2H])[2H]: lower bin
[2H]C([2H])([2H])N(C(=O)C[C@H]1C(=O)Nc2cc(NC(=O)c3cc(OC)c(OC)c(OC)c3Br)c(Oc3cc(C)cc(C)c3)cc2C(=O)N1C)C([2H])([2H])[2H]: middle bin
[2H]C([2H])([2H])Oc1cc(C(=O)Nc2cc3c(cc2Oc2cc(C)cc(C)c2)C(=O)N[C@@H](CC(=O)N(C)OC([2H])([2H])[2H])C(=O)N3)c(Br)c(OC([2H])([2H])[2H])c1OC([2H])([2H])[2H]: middle bin
[2H]C([2H])([2H])Oc1cc(C(=O)Nc2cc3c(cc2Oc2cc(C)cc(C)c2)C(=O)N[C@@H](CC(=O)N(C)OC)C(=O)N3)c(Br)c(OC([2H])([2H])[2H])c1OC([2H])([2H])[2H]: upper bin
[2H]C([2H])([2H])C([2H])([2H])N(C(=O)C[C@@H]1NC(=O)c2cc(Oc3cc(C)cc(C)c3)c(NC(=O)c3cc(OC)c(OC)c(OC)c3Br)cc2NC1=O)C([2H])([2H])C([2H])([2H])[2H]: middle bin
[2H]C([2H])([2H])Oc1cc(C(=O)Nc2cc3c(cc2Oc2cc(C)cc(C)c2)C(=O)N[C@@H](CC(=O)N(C([2H])([2H])C([2H])([2H])[2H])C([2H])([2H])C([2H])([2H])[2H])C(=O)N3)c(Br)c(OC([2H])([2H])[2H])c1OC([2H])([2H])[2H]: upper bin
CCN(CC)C(=O)C[C@@H]1NC(=O)c2cc(Oc3cc(C)cc(C)c3)c(NC(=O)c3cc(OC)c(OC)c(OC)c3Cl)cc2NC1=O [c, reference compound]: lower bin

Shifting focus to the compound that follows.
Q: Exercise: read the entry [2H]C([2H])([2H])Oc1cc(C(=O)Nc2cc3c(cc2Oc2cc(C)cc(C)c2)C(=O)N[C@@H](CC(=O)N2CCN(C)CC2)C(=O)N3)c(Br)c(OC([2H])([2H])[2H])c1OC([2H])([2H])[2H] and state which class it falls under.
Result: upper bin
